FYI, the data here is from patent US20110118447A1.

molecular target: binding partner of C5A (XPA23); assay: Biacore K-off

BINDER	fold difference in affinity vs original
C5A (XPA23) VL S53N (antibody, V domains shown) VH: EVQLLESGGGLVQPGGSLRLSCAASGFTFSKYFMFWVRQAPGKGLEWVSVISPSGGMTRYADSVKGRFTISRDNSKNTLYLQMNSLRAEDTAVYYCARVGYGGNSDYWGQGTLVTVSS VL: DIQMTQSPSSVSASVGDRLTIICRASQDINRWLAWYQQTPGNAPKLLIHSATNLQSGVPSRFSGSGSGTDFTLTINSLQPEDFATYYCQQADSFPLTFGGGTKVEIK	1.23 fold
C5A (XPA23) VL S93H (antibody, V domains shown) VH: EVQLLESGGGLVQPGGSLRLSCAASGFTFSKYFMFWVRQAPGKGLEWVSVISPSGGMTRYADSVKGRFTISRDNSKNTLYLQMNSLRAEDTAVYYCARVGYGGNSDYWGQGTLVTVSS VL: DIQMTQSPSSVSASVGDRLTIICRASQDINRWLAWYQQTPGNAPKLLIHSATSLQSGVPSRFSGSGSGTDFTLTINSLQPEDFATYYCQQADHFPLTFGGGTKVEIK	1.08 fold
C5A (XPA23) VH F33W (antibody, V domains shown) VH: EVQLLESGGGLVQPGGSLRLSCAASGFTFSKYWMFWVRQAPGKGLEWVSVISPSGGMTRYADSVKGRFTISRDNSKNTLYLQMNSLRAEDTAVYYCARVGYGGNSDYWGQGTLVTVSS VL: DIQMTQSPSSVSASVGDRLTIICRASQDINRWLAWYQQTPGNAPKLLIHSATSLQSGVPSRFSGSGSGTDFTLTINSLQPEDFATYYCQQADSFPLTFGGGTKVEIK	0.79 fold
